Test system: RARg:RXRa (NR concentration 270 nM, RXRa partner concentration 90 nM)
Assay: PBM binding z-score (relative to random genomic background probes); higher = stronger binding; sequences stand for … in GC…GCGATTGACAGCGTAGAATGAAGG
readout-name: PBM binding z-score
Numbers only.

Here is how some sequences turned out for PBM binding z-score.
[[record]]
macromolecule_sequence = "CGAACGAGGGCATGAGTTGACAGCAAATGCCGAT"
value_measured = 1.52

[[record]]
macromolecule_sequence = "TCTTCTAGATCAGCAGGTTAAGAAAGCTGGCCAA"
value_measured = 0.12

[[record]]
macromolecule_sequence = "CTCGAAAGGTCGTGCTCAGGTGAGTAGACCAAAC"
value_measured = 5.23

[[record]]
macromolecule_sequence = "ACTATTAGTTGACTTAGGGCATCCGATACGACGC"
value_measured = 0.218


Give measured PBM binding z-score for every item shown.
1. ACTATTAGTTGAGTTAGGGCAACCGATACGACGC
2. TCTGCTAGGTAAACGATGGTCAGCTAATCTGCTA
3. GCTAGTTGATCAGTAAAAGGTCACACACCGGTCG

1: 0.417; 2: -0.193; 3: 5.1
